Reported ED50 by item:
# Tested on: generalized trembling caused by dl-5-hydroxytryptophane
# Assay summary: Test A: potentiation in mice of generalized trembling caused by dl-5-hydroxytryptophane
# Type: in vivo
# Experimental conditions: Mus musculus, po, mice, potentiation of trembling by dl-5-hydroxytryptophane 200 mg/kg interperitoneal, read-out: Test A ED 50
Assay readout: ED50 (mg/kg)

# Compound, Reported measurement
data = [
    ("COCC1CN(c2ccc(OCCCC#N)cc2)C(=O)O1 (centres unmarked)", 0.3),
    ("CCCOc1ccc(N2CC(CO)OC2=S)cc1 (centres unmarked)", 12.5),
    ("C#CCOCC1CN(c2ccc(OCc3cccc([N+](=O)[O-])c3)cc2)C(=O)O1 (centres unmarked)", 0.8),
    ("CCOCC1CN(c2ccc(OCc3cccc(Cl)c3)cc2)C(=O)O1 (centres unmarked)", 9.6),
    ("CC(C)C(=O)OCC1CN(c2ccc(OCc3ccccc3)cc2)C(=O)O1 (centres unmarked)", 15),
    ("COCC1CN(c2ccc(OCC3CCCCC3)cc2)C(=S)O1 (centres unmarked)", 3.7),
    ("COCC1CN(c2ccc(OCc3ccc(C#N)cc3)cc2)C(=O)O1 (centres unmarked)", 5.2),
    ("CC(C)OCC1CN(c2ccc(OCc3cccc([N+](=O)[O-])c3)cc2)C(=O)O1 (centres unmarked)", 3.6),
    ("O=C(OCC1CN(c2ccc(OCc3ccccc3)cc2)C(=O)O1)c1ccccc1 (centres unmarked)", 45),
    ("COCC1CN(c2ccc(/C=C\\c3ccccc3)cc2)C(=O)O1 (centres unmarked)", 19),
    ("COCC1CN(c2ccc(OCC3CCCCC3)cc2)C(=O)O1 (centres unmarked)", 0.6),
    ("CCOCC1CN(c2ccc(OCc3cccc([N+](=O)[O-])c3)cc2)C(=O)O1 (centres unmarked)", 0.5),
    ("CC(C)(C)C(=O)OCC1CN(c2ccc(OCC3CCCCC3)cc2)C(=O)O1 (centres unmarked)", 6.2),
    ("NCC1CN(c2ccc(OCc3ccccc3)cc2)C(=O)O1 (centres unmarked)", 20),
    ("CC(C)(C)C(=O)OCC1CN(c2ccc(OCc3cccc([N+](=O)[O-])c3)cc2)C(=O)O1 (centres unmarked)", 6.2),
    ("COCC1CN(c2ccc(CCc3ccccc3)cc2)C(=O)O1 (centres unmarked)", 5.8),
    ("CC(C)C(=O)OCC1CN(c2ccc(OCC3CCCC3)cc2)C(=O)O1 (centres unmarked)", 2.2),
    ("CC(C)CCOc1ccc(N2CC(COC(=O)C(C)C)OC2=O)cc1 (centres unmarked)", 5),
    ("COCC1CN(c2ccc(OCC3CCCOC3)cc2)C(=O)O1 (centres unmarked)", 3.7),
    ("N#CCCOc1ccc(N2CC(COC(=O)c3ccccc3)OC2=O)cc1 (centres unmarked)", 2.4),
    ("O=C(OCC1CN(c2ccc(OCc3cccc([N+](=O)[O-])c3)cc2)C(=O)O1)C1CCCCC1 (centres unmarked)", 6.2),
    ("N#CCCOc1ccc(N2CC(COC(=O)C3CCCCC3)OC2=O)cc1 (centres unmarked)", 2.2),
    ("CCOCC1CN(c2ccc(OCc3ccccc3)cc2)C(=O)O1 (centres unmarked)", 19),
    ("CCCCOc1ccc(N2CC(CN(C)C)OC2=O)cc1 (centres unmarked)", 8),
    ("CCCCOc1ccc(N2CC(CO)OC2=S)cc1 (centres unmarked)", 12.5),
    ("CCC(=O)OCC1CN(c2ccc(OCc3cccc([N+](=O)[O-])c3)cc2)C(=O)O1 (centres unmarked)", 1.9),
    ("CC(C)(C)C(=O)OCC1CN(c2ccc(OCC3CCCC3)cc2)C(=O)O1 (centres unmarked)", 4.8),
    ("COCC1CN(c2ccc(OCC3CCCCCC3)cc2)C(=O)O1 (centres unmarked)", 0.7),
    ("CCCCOc1ccc(N2CC(COCC)OC2=O)cc1 (centres unmarked)", 10),
    ("COCC1CN(c2ccc(/C=C/c3cccc(Cl)c3)cc2)C(=O)O1 (centres unmarked)", 1),
    ("CCC(=O)OCC1CN(c2ccc(OCc3cccc(C#N)c3)cc2)C(=O)O1 (centres unmarked)", 3),
    ("CCCCCOc1ccc(N2CC(COC)OC2=O)cc1 (centres unmarked)", 2.2),
    ("COCC1CN(c2ccc(OCCC(C)C)cc2)C(=S)O1 (centres unmarked)", 0.84),
    ("CCCOCC1CN(c2ccc(OCCC#N)cc2)C(=O)O1 (centres unmarked)", 8.5),
    ("COCC1CN(c2ccc(OCCCCC#N)cc2)C(=O)O1 (centres unmarked)", 0.1),
    ("CC(C)C(=O)OCC1CN(c2ccc(OCc3cccc(Cl)c3)cc2)C(=O)O1 (centres unmarked)", 4.7),
    ("COCC1CN(c2ccc(OCc3cccc(Br)c3)cc2)C(=O)O1 (centres unmarked)", 2.2),
    ("COCC1CN(c2ccc(OCC3CCCC3)cc2)C(=O)O1 (centres unmarked)", 0.5),
]

====

Reported ED50 by item:
# System: generalized trembling caused by dl-5-hydroxytryptophane
# Assay summary: Test A: potentiation in mice of generalized trembling caused by dl-5-hydroxytryptophane
# Format: in vivo
# Experimental conditions: Mus musculus, po, mice, potentiation of trembling by dl-5-hydroxytryptophane 200 mg/kg interperitoneal, read-out: Test A ED 50

# Compound, ED50, mg/kg
measured = [
    ("COCC1CN(c2ccc(OCc3ccc(Cl)cc3)cc2)C(=O)O1 (stereo not shown)", 5),
    ("COCC1CN(c2ccc(OCCC#N)cc2)C(=O)O1 (stereo not shown)", 1.2),
    ("COCC1CN(c2ccc(OCC3CCCC3)cc2)C(=S)O1 (stereo not shown)", 2),
    ("CCCCC(=O)OCC1CN(c2ccc(OCCC#N)cc2)C(=O)O1 (stereo not shown)", 2.4),
    ("N#CCCOc1ccc(N2CC(CO)OC2=S)cc1 (stereo not shown)", 6.2),
    ("OCC1CN(c2ccc(OCC3CCCC3)cc2)C(=S)O1 (stereo not shown)", 6.2),
    ("COCC1CN(c2ccc(N(C)C)cc2)C(=O)O1 (stereo not shown)", 7.4),
    ("COCC1CN(c2ccc(OCCCCC#N)cc2)C(=S)O1 (stereo not shown)", 1),
    ("CCCCC(=O)OCC1CN(c2ccc(OCCC(C)C)cc2)C(=O)O1 (stereo not shown)", 7.2),
    ("COCC1CN(c2ccc(OCc3cccc(C#N)c3)cc2)C(=O)O1 (stereo not shown)", 0.28),
]

====

Reported ED50 by item:
# System: generalized trembling caused by dl-5-hydroxytryptophane
# Assay summary: Test A: potentiation in mice of generalized trembling caused by dl-5-hydroxytryptophane
# Type: in vivo
# Experimental conditions: Mus musculus, po, mice, potentiation of trembling by dl-5-hydroxytryptophane 200 mg/kg interperitoneal, read-out: Test A ED 50
Assay readout: ED50 (mg/kg)

# Compound, Assay readout, Reported measurement
rows = [
    ("COCC1CN(c2ccc(OCc3cccnc3)cc2)C(=S)O1 (stereo not drawn) [compound 213]", "ED50", 3),
    ("COCC1CN(c2ccc(OCC(C)=O)cc2)C(=O)O1 (stereo not drawn) [compound 151]", "ED50", 5.2),
    ("COCC1CN(c2ccc(/C=C/c3cccc([N+](=O)[O-])c3)cc2)C(=O)O1 (stereo not drawn) [compound 191]", "ED50", 0.4),
    ("CC(C)CCOCC1CN(c2ccc(OCc3cccc([N+](=O)[O-])c3)cc2)C(=O)O1 (stereo not drawn) [compound 158]", "ED50", 6),
    ("CC(=O)OCC1CN(c2ccc(OCC#N)cc2)C(=O)O1 (stereo not drawn) [compound 1]", "ED50", 12.5),
    ("NCC1CN(c2ccc(OCc3cccc([N+](=O)[O-])c3)cc2)C(=O)O1 (stereo not drawn) [compound 84]", "ED50", 3),
    ("CN(C)CC1CN(c2ccc(OCCC#N)cc2)C(=O)O1 (stereo not drawn) [compound 171]", "ED50", 19.5),
    ("Cc1cccc(N2CC(CO)OC2=O)c1 (stereo not drawn) [TOLOXATONE, reference compound]", "ED50", 60),
    ("OCC1CN(c2ccc(OCC3CCCCC3)cc2)C(=S)O1 (stereo not drawn) [compound 90]", "ED50", 3),
]

====

# Test system: generalized trembling caused by dl-5-hydroxytryptophane
# Assay summary: Test A: potentiation in mice of generalized trembling caused by dl-5-hydroxytryptophane
# Assay type: in vivo
# Experimental conditions: Mus musculus, po, mice, potentiation of trembling by dl-5-hydroxytryptophane 200 mg/kg interperitoneal, read-out: Test A ED 50
# Procedure: Test A: Potentiation in mice of generalized trembling caused by an interperitoneal injection (200 mg/kg) of dl-5-hydroxytryptophane, following the protocol described by C. GOURET and G. RAYNAUD in J. Pharmacol. (Paris), (1974), 5, 231.
Reported ED50 by item:

# Molecule, ED50 [mg/kg]
rows = [
    ("NCC1CN(c2ccc(OCc3cccc(Cl)c3)cc2)C(=O)O1 (stereo not shown)", 9.6),
    ("CCCOCC1CN(c2ccc(OCc3cccc([N+](=O)[O-])c3)cc2)C(=O)O1 (stereo not shown)", 0.8),
    ("CNCC1CN(c2ccc(OCc3cccc(Cl)c3)cc2)C(=O)O1 (stereo not shown)", 12.5),
    ("COCC1CN(c2ccc(OCc3cccc(I)c3)cc2)C(=O)O1 (stereo not shown)", 40),
]
